The measurements presented in this section are drawn from paper PMC9358669.

- test-target: Chymotrypsin (Bos taurus, UniProt P00766)
- Construct: purchased Sigma-Aldrich
- assay-details: Chymotrypsin inhibition, fluorogenic substrate assay (Suc-Ala-Ala-Pro-Phe-AMC)
- Assay type: biochemical
- condition-context: Chymotrypsin; inhibitor concentration 12.3457 nM; 40 min pre-incubation
assay-metric: Mean (RFU/s)

>  <molecule>
CC=C1NC(=O)[C@@H](NC(=O)[C@@H](NC(=O)[C@@H]2CCCN2C(=O)CCC)[C@@H](C)O)[C@@H](C)OC(=O)[C@H](C(C)C)NC(=O)[C@H](Cc2ccc(O)cc2)N(C)C(=O)[C@H](Cc2ccccc2)N2C(=O)[C@H](CC[C@H]2O)NC1=O [Rivulariapeptolide 988, rivulariapeptolide 988]

>  <assay-metric>
Mean (RFU/s)

>  <data-value>
4.587

$$$$
>  <molecule>
C/C=C1\NC(=O)[C@@H](NC(=O)[C@@H](NC(=O)[C@H](C)NC(=O)CCC)[C@@H](C)O)[C@@H](C)OC(=O)[C@H](C(C)C)NC(=O)[C@H](Cc2ccc(O)cc2)N(C)C(=O)[C@H](Cc2ccccc2)N2C(=O)[C@H](CC[C@H]2O)NC1=O [Molassamide, molassamide]

>  <assay-metric>
Mean (RFU/s)

>  <data-value>
5.257

$$$$
>  <molecule>
CCCC(=O)N1CCCC1C(=O)NC(C(=O)NC1C(=O)NC(CC(C)C)C(=O)NC2CCC(O)N(C2=O)C(Cc2ccccc2)C(=O)N(C)C(Cc2ccc(O)cc2)C(=O)NC(C(C)C)C(=O)OC1C)C(C)OC(=O)C1CCCN1C(=O)CCC (stereo not drawn) [Rivulariapeptolide 1185, rivulariapeptolide 1185]

>  <assay-metric>
Mean (RFU/s)

>  <data-value>
2.685

$$$$
>  <molecule>
CC=C1NC(=O)[C@@H](NC(=O)[C@@H](NC(=O)[C@@H]2CCCN2C(=O)CCC)[C@@H](C)OC(=O)C2CCCN2C(=O)CCC)[C@@H](C)OC(=O)[C@H](C(C)C)NC(=O)[C@H](Cc2ccc(O)cc2)N(C)C(=O)[C@H](Cc2ccccc2)N2C(=O)[C@H](CC[C@H]2O)NC1=O (stereo partly drawn) [Rivulariapeptolide 1155, rivulariapeptolide 1155]

>  <assay-metric>
Mean (RFU/s)

>  <data-value>
4.399

$$$$
>  <molecule>
CC=C1NC(=O)[C@@H](NC(=O)[C@@H](NC(=O)[C@@H]2CCCN2C(=O)CCC)[C@@H](C)OC(=O)C2CCCN2C(=O)CCC)[C@@H](C)OC(=O)[C@H](C(C)C)NC(=O)[C@H](Cc2ccc(O)cc2)N(C)C(=O)[C@H](CC(C)C)N2C(=O)[C@H](CC[C@H]2O)NC1=O (stereo partly drawn) [Rivulariapeptolide 1121, rivulariapeptolide 1121]

>  <assay-metric>
Mean (RFU/s)

>  <data-value>
4.156

$$$$
>  <molecule>
C/C=C1\NC(=O)[C@@H](NC(=O)[C@@H](NC(=O)[C@H](C)NC(=O)CCC)[C@@H](C)O)[C@@H](C)OC(=O)[C@H](C(C)C)NC(=O)[C@H](Cc2ccc(O)c(Br)c2)N(C)C(=O)[C@H](Cc2ccccc2)N2C(=O)[C@H](CC[C@H]2O)NC1=O [Molassamide B, molassamide B]

>  <assay-metric>
Mean (RFU/s)

>  <data-value>
3.888

$$$$
